Assay: in vitro
Details: dog
quantity: CC50

Recorded CC50, per entry:
O=c1[nH]c(=O)n(Cc2cn([C@@H]3O[C@H](CO[PH](=O)O)[C@@H](O)[C@H]3O)nn2)c2ccccc12 [Compound 23b]: > 555 µM
CCC(CC)O[C@@H]1C=C(C(=O)O)C[C@H](N)[C@H]1NC(C)=O [Oseltamivir carboxylate, reference compound]: > 200 µM
O=c1[nH]c(=O)n(Cc2cn([C@@H]3O[C@H](COP(=O)(O)O)[C@@H](O)[C@H]3O)nn2)c2ccccc12 [Compound 25b]: > 458 µM
CCOP(=O)(OCC)OC[C@H]1O[C@@H](n2cc(Cn3ccc(=O)[nH]c3=O)nn2)[C@H](O)[C@@H]1O [Compound 11a]: > 650 µM
O=c1ccn(Cc2cn([C@@H]3O[C@H](CO[PH](=O)O)[C@@H](O)[C@H]3O)nn2)c(=O)[nH]1 [Compound 23a]: > 612 µM
O=c1[nH]c(=O)n(CCCCc2cn([C@@H]3O[C@H](CO[PH](=O)O)[C@@H](O)[C@H]3O)nn2)c2ccccc12 [Compound 24b]: > 516 µM
O=c1[nH]c(=O)n(CCCCc2cn([C@@H]3O[C@H](COP(=O)(O)O)[C@@H](O)[C@H]3O)nn2)c2ccccc12 [Compound 26b]: > 430 µM
CCOP(=O)(OCC)OC[C@H]1O[C@@H](n2cc(CCCCn3c(=O)[nH]c(=O)c4ccccc43)nn2)[C@H](O)[C@@H]1O [Compound 12b]: > 542 µM
O=c1ccn(CCCCc2cn([C@@H]3O[C@H](CO[PH](=O)O)[C@@H](O)[C@H]3O)nn2)c(=O)[nH]1 [Compound 24a]: > 564 µM
COC(=O)[C@H](C)NP(=O)(OC[C@H]1O[C@@H](n2cc(CCCCn3c(=O)[nH]c(=O)c4ccccc43)nn2)[C@H](O)[C@@H]1O)Oc1ccccc1 (stereo partly drawn) [Compound 18b]: > 456 µM

Query: Reported CC50 for O=c1[nH]c(=O)n(CCCCc2cn([C@@H]3O[C@H](COP(=O)(Oc4ccccc4)Oc4ccccc4)[C@@H](O)[C@H]3O)nn2)c2ccccc12 [Compound 14b] : what is it?
Response: 98 µM

Query: Query CCOP(=O)(OCC)OC[C@H]1O[C@@H](n2cc(Cn3c(=O)[nH]c(=O)c4ccccc43)nn2)[C@H](O)[C@@H]1O [Compound 11b] next
Response: > 587 µM

Query: Query COC(=O)[C@H](C)NP(=O)(OC[C@H]1O[C@@H](n2cc(Cn3c(=O)[nH]c(=O)c4ccccc43)nn2)[C@H](O)[C@@H]1O)Oc1ccccc1 (stereo partly drawn) [Compound 17b] next
Response: > 487 µM

Query: Query O=c1ccn(Cc2cn([C@@H]3O[C@H](COP(=O)(O)O)[C@@H](O)[C@H]3O)nn2)c(=O)[nH]1 [Compound 25a] next
Response: > 494 µM

Query: Query COC(=O)[C@H](C)NP(=O)(OC[C@H]1O[C@@H](n2cc(Cn3ccc(=O)[nH]c3=O)nn2)[C@H](O)[C@@H]1O)Oc1ccccc1 (stereo partly drawn) [Compound 17a] next
Response: > 530 µM

###

Tested on: A/Puerto Rico/8/34 (H1N1) influenza virus
Test: microbe, parasite or virus in culture
Type: cell-based
Settings: Influenza A virus; A/Puerto Rico/8/34 (H1N1), MDCK cells, 48 h; read-out: IC50 (50% inhibition of virus replication)
quantity: pIC50
Conceptually, pIC50 converts a concentration in mol/L into minus its log10.

O=c1[nH]c(=O)n(Cc2cn([C@@H]3O[C@H](CO[PH](=O)O)[C@@H](O)[C@H]3O)nn2)c2ccccc12 [Compound 23b]: 3.75

Query: Reported pIC50 for O=c1ccn(CCCCc2cn([C@@H]3O[C@H](CO[PH](=O)O)[C@@H](O)[C@H]3O)nn2)c(=O)[nH]1 [Compound 24a] : what is it?
Response: 3.66

FYI, the data here is from paper PMC9573387.
